Entries annotated with measured inhibition
- ASSAY_TARGET: Serine/threonine-protein kinase pim-2 (Homo sapiens) (UniProt Q9P1W9);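 note: reported value is the mean percent inhibition of PIM2, measured in the GSK PKIS kinase inhibitor set screen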
- Sequence (Q9P1W9 whole entry, looked up): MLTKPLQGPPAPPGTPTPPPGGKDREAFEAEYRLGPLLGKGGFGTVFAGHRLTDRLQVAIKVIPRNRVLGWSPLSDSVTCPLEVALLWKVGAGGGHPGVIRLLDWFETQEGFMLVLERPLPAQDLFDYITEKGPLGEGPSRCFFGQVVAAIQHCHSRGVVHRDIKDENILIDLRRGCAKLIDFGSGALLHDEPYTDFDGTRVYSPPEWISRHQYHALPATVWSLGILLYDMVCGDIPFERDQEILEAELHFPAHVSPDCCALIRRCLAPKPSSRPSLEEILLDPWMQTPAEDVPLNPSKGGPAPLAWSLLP
- STATED_CONDITIONS: at 0.1 µM
OBSERVABLE: inhibition (%)

RECORD_SMILES: COc1cc2ncnc(Nc3ccc(C)c(O)c3)c2cc1OC
MEASURED_RESULT: 1.6
//
RECORD_SMILES: COc1cc2ncnc(Nc3ccc4c(cnn4Cc4ccccc4)c3)c2cc1OC
MEASURED_RESULT: 0.05
//
RECORD_SMILES: CC(C)c1ccc2c(c1)NC(=O)/C2=N/Nc1ccc(S(N)(=O)=O)cc1
MEASURED_RESULT: -0.21
//
RECORD_SMILES: COc1cc(/C=N/Nc2ncnc3c2cnn3C(C)C)ccc1O
MEASURED_RESULT: 0.9
//
RECORD_SMILES: COc1ccc2ncnc(Nc3ccc(OCc4ccccc4)cc3)c2c1
MEASURED_RESULT: -0.18
//
RECORD_SMILES: CC(C)c1ccc(Nc2nccc(-c3cnn4ncccc34)n2)cc1
MEASURED_RESULT: -0.13

* * *

- Tested on: Platelet-derived growth factor receptor alpha (Homo sapiens), P16234 [T674I]
- Sequence (P16234 whole entry T674I): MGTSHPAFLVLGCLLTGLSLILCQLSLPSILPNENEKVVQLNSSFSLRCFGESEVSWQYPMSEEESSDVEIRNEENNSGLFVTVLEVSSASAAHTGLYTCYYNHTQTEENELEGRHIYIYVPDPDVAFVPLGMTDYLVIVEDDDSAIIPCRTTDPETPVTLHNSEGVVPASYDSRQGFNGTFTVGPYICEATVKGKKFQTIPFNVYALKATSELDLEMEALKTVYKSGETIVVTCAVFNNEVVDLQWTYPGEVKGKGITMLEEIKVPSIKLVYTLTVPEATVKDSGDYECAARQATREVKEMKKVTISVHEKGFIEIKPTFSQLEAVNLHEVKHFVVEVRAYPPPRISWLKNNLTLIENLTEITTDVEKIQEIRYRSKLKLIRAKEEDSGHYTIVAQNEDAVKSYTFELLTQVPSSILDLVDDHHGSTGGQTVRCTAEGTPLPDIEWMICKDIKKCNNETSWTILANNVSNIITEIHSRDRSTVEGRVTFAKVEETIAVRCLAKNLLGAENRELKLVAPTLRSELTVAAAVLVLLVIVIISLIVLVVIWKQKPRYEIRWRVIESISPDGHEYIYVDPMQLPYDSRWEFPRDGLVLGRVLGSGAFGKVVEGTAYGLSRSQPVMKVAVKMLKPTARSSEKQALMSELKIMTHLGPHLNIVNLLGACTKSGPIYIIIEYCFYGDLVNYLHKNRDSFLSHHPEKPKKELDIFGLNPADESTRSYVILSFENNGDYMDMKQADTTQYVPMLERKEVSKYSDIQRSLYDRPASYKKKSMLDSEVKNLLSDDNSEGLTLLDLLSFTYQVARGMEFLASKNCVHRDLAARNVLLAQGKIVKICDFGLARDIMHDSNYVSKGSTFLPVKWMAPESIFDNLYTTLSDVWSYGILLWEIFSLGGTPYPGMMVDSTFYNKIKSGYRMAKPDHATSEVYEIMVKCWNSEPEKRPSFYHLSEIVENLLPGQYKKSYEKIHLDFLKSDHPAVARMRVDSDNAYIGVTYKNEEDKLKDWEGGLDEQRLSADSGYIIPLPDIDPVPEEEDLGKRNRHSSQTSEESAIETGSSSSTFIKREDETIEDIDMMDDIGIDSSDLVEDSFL
- STATED_CONDITIONS: at 1 µM
Would you mind labelling by inhibition? At or over 10% is true, under is false.

COMPOUND: NS(=O)(=O)c1ccc(Nc2cc(-c3cccc(O)c3)n[nH]2)cc1
ASSIGNED_CLASS: false

COMPOUND: Cc1ccc2c(-c3ccnc(Nc4ccc5c(c4)OCCO5)n3)c(-c3ccc(C(F)(F)F)cc3)nn2n1
ASSIGNED_CLASS: false

COMPOUND: COc1ccc(-c2nn3ncccc3c2-c2ccnc(Nc3cccc(C(F)(F)F)c3)n2)cc1
ASSIGNED_CLASS: false

COMPOUND: Cc1ccc(Nc2ccnc(Nc3cccc(C(N)=O)c3)n2)cc1O
ASSIGNED_CLASS: true

COMPOUND: N#Cc1c(NC(=O)c2ccccc2F)sc2c1CCCC2
ASSIGNED_CLASS: false

COMPOUND: CN(C)C(=O)O[C@@H]1CN[C@@H](C#Cc2cc3ncnc(Nc4ccc(OCc5cccc(F)c5)c(Cl)c4)c3s2)C1
ASSIGNED_CLASS: false

COMPOUND: CN(C)C(=O)O[C@H]1CN[C@H](C#Cc2cc3ncnc(Nc4ccc(OCc5cccc(F)c5)c(Cl)c4)c3s2)C1
ASSIGNED_CLASS: false

COMPOUND: NS(=O)(=O)c1cccc(-c2cc3ccncc3cc2OCc2ccccc2)c1
ASSIGNED_CLASS: false

COMPOUND: O=S(=O)(CCOCc1ccc(-c2ccc3ncnc(Nc4ccc(OCc5cccc(F)c5)c(Cl)c4)c3c2)o1)c1ccccc1
ASSIGNED_CLASS: false

COMPOUND: Cc1ccc2c(-c3ccnc(Nc4cccc(C(F)(F)F)c4)n3)c(-c3ccccc3)nn2n1
ASSIGNED_CLASS: false

COMPOUND: CCn1c(-c2nonc2N)nc2c(C#CC(C)(C)O)nc(OCCNC)cc21
ASSIGNED_CLASS: true

COMPOUND: CCCN1CCCC(c2ccc(Nc3nc(Nc4cc(F)ccc4C(N)=O)c4cc[nH]c4n3)c(OC)c2)C1 (stereo not given)
ASSIGNED_CLASS: false

COMPOUND: CC(C)c1ccc(Nc2nccc(-c3cnn4ncccc34)n2)cc1
ASSIGNED_CLASS: true

COMPOUND: C[C@@H](Oc1cc(-n2cnc3ccc(OC[C@@H](O)CO)cc32)sc1C(N)=O)c1ccccc1Cl
ASSIGNED_CLASS: true

COMPOUND: O=C(Nc1ccc(Oc2ccc3[nH]c(NC(=O)c4ccco4)nc3c2)cc1)Nc1cc(C(F)(F)F)ccc1F
ASSIGNED_CLASS: true

COMPOUND: NS(=O)(=O)c1ccc(NC=C2C(=O)Nc3ccc4ncsc4c32)cc1
ASSIGNED_CLASS: true

COMPOUND: COC(=O)c1cncc(/C=C/c2c(C)cc(O)cc2C)c1
ASSIGNED_CLASS: false

COMPOUND: COc1cc(/C=N/Nc2ncnc3c2cnn3C(C)C)ccc1O
ASSIGNED_CLASS: false

* * *

- ASSAY_TARGET: Mitogen-activated protein kinase 13 (Homo sapiens) (UniProt O15264);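 note: reported value is the mean percent inhibition of p38delta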
- Sequence (O15264 whole entry): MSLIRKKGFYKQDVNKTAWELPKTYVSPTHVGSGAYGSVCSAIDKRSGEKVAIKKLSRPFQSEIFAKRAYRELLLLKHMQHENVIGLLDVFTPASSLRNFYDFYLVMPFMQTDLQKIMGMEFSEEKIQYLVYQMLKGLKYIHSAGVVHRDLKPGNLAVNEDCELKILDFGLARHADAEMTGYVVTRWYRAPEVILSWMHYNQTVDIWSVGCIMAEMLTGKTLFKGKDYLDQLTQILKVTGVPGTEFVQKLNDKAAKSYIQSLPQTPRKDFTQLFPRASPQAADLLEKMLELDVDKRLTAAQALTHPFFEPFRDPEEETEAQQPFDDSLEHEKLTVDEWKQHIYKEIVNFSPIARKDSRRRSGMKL
- STATED_CONDITIONS: at 0.1 µM
As shown below, each of these compounds has a reported inhibition value.

COMPOUND: COc1cc2ncnc(Nc3ccc(C)c(O)c3)c2cc1OC
inhibition: -2.57%
--
COMPOUND: CCCN1CCCC(c2ccc(Nc3nc(Nc4cc(F)ccc4C(N)=O)c4cc[nH]c4n3)c(OC)c2)C1 (stereo not given)
inhibition: 6.1%
--
COMPOUND: NS(=O)(=O)c1ccc(NC=C2C(=O)Nc3ccc4ncsc4c32)cc1
inhibition: 1.67%
--
COMPOUND: Cc1ccc(Nc2ccnc(Nc3cccc(C(N)=O)c3)n2)cc1O
inhibition: -1.12%
--
COMPOUND: CN(C)c1cc2c(Nc3ccc4c(cnn4Cc4ccccc4)c3)ncnc2cn1
inhibition: 0.05%
--
COMPOUND: COC(=O)Nc1nc2cc(Oc3ccc(NC(=O)Nc4cccc(Br)c4)cc3)ccc2[nH]1
inhibition: 2.44%
--
COMPOUND: CN(C)CCCn1c(-c2nonc2N)nc2cnccc21
inhibition: 1.23%
--
COMPOUND: COc1ccc2ncnc(Nc3ccc(OCc4ccccc4)cc3)c2c1
inhibition: 0.25%
--
COMPOUND: CN(c1ccc(NC(=O)Nc2ccc(OC(F)(F)F)cc2)cc1)c1ccnc(Nc2cccc(S(N)(=O)=O)c2)n1
inhibition: 2.86%
--
COMPOUND: FC(F)(F)c1ccc(-c2nn3ncccc3c2-c2ccnc(Nc3ccc4c(c3)OCCO4)n2)cc1
inhibition: 5.26%
--
COMPOUND: CN(C)C(=O)O[C@@H]1CN[C@@H](C#Cc2cc3ncnc(Nc4ccc(OCc5cccc(F)c5)c(Cl)c4)c3s2)C1
inhibition: 1.12%
--
COMPOUND: COc1cccc(-n2ncc3c(N/N=C/c4ccc(C)cc4)ncnc32)c1
inhibition: 4.61%
--
COMPOUND: CCS(=O)(=O)c1ccc(OC)c(Nc2ncc(-c3cccc(OC)c3)o2)c1
inhibition: 1.24%
--
COMPOUND: Nc1nccc(C#Cc2cncnc2Nc2ccc(OCc3cccc(F)c3)c(Cl)c2)n1
inhibition: 1.14%
--
COMPOUND: CC(C)c1ccc(Nc2nccc(-c3cnn4ncccc34)n2)cc1
inhibition: 1.62%

* * *

A collection of compounds and their measured inhibition
- ASSAY_TARGET: Homeodomain-interacting protein kinase 1 (Homo sapiens)
- STATED_CONDITIONS: at 1 µM

RECORD_SMILES: NS(=O)(=O)c1ccc(Nc2cc(-c3cccc(O)c3)n[nH]2)cc1
ASSAY_TARGET: Homeodomain-interacting protein kinase 1 (Homo sapiens)
inhibition: 2.36%

RECORD_SMILES: OCc1ccc(-c2nc(-c3ccccn3)c(-c3ccc4c(c3)OCO4)[nH]2)cc1
ASSAY_TARGET: Homeodomain-interacting protein kinase 1 (Homo sapiens)
inhibition: 4.92%

RECORD_SMILES: COc1ccc(-c2nn3ncccc3c2-c2ccnc(Nc3cccc(C(F)(F)F)c3)n2)cc1
ASSAY_TARGET: Homeodomain-interacting protein kinase 1 (Homo sapiens)
inhibition: -1.85%

RECORD_SMILES: COc1cc2ncnc(Nc3ccc4c(cnn4Cc4ccccc4)c3)c2cc1OC
ASSAY_TARGET: Homeodomain-interacting protein kinase 1 (Homo sapiens)
inhibition: -0.46%

RECORD_SMILES: CN(C)c1cc2c(Nc3ccc4c(cnn4Cc4ccccc4)c3)ncnc2cn1
ASSAY_TARGET: Homeodomain-interacting protein kinase 1 (Homo sapiens)
inhibition: 2.06%

RECORD_SMILES: c1ccc(Nc2ncc(-c3ccccc3)o2)cc1
ASSAY_TARGET: Homeodomain-interacting protein kinase 1 (Homo sapiens)
inhibition: 3.15%

RECORD_SMILES: COc1cccc(-n2ncc3c(N/N=C/c4ccc(S(C)(=O)=O)cc4)ncnc32)c1
ASSAY_TARGET: Homeodomain-interacting protein kinase 1 (Homo sapiens)
inhibition: 64.3%

RECORD_SMILES: O=C1Nc2ccc(-c3cccnc3)cc2C1=Cc1cc(Br)c(O)c(Br)c1
ASSAY_TARGET: Homeodomain-interacting protein kinase 1 (Homo sapiens)
inhibition: 22.4%

RECORD_SMILES: C[C@@H](Oc1cc(-n2cnc3ccc(OCC4CCN(C)CC4)cc32)sc1C(N)=O)c1ccccc1C(F)(F)F
ASSAY_TARGET: Homeodomain-interacting protein kinase 1 (Homo sapiens)
inhibition: 9.66%

RECORD_SMILES: NS(=O)(=O)c1ccc(NC=C2C(=O)Nc3ccc4ncsc4c32)cc1
ASSAY_TARGET: Homeodomain-interacting protein kinase 1 (Homo sapiens)
inhibition: 47.4%

RECORD_SMILES: CCn1c(-c2nonc2N)nc2c(C#CC(C)(C)O)nc(OCCNC)cc21
ASSAY_TARGET: Homeodomain-interacting protein kinase 1 (Homo sapiens)
inhibition: 7.86%

RECORD_SMILES: c1ccc(Cc2nc3ccc(Nc4ncnc5ccccc45)cc3[nH]2)cc1
ASSAY_TARGET: Homeodomain-interacting protein kinase 1 (Homo sapiens)
inhibition: 9.6%

RECORD_SMILES: CS(=O)(=O)Nc1cccc(-c2ccc3c(NC(=O)C4CC4)n[nH]c3c2)c1
ASSAY_TARGET: Homeodomain-interacting protein kinase 1 (Homo sapiens)
inhibition: 0.93%

RECORD_SMILES: Nc1ccc(C#Cc2cncnc2Nc2ccc(OCc3cccc(F)c3)c(Cl)c2)cc1
ASSAY_TARGET: Homeodomain-interacting protein kinase 1 (Homo sapiens);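 note: values are mean percent inhibition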
inhibition: 0.93%
